Values from paper PMC6039436

experiment: Biodistribution in ddY mice; format: in vivo; conditions: i.v. co-injection, 4 h
measurement-type: Radioactivity in Liver

COCCOc1ccc2c(c1)ncn2-c1ccc2cccc(N3CCC(NC(=O)c4cccc([125I])c4)CC3)c2n1 [[^125I]5, reference compound]; 1.21 (0.96) %injected dose/gram tissue
COCCOc1ccc2c(c1)ncn2-c1ccc2c([125I])ccc(N3CCC(N)CC3)c2n1 [[^125I]4, reference compound]; 3.45 (1.02) %injected dose/gram tissue
COCCOc1ccc2c(c1)ncn2-c1ccc2c([77Br])ccc(N3CCC(N)CC3)c2n1 [[^77Br]2]; 3.44 (0.98) %injected dose/gram tissue
COCCOc1ccc2c(c1)ncn2-c1ccc2cccc(N3CCC(NC(=O)c4cccc([77Br])c4)CC3)c2n1 [[^77Br]3]; 2.19 (1.38) %injected dose/gram tissue
